- TEST_DESCRIPTION: in vivo
- EXPERIMENTAL_CONTEXT: male, Sprague-Dawley, rat, iv, 1 mg/kg
Mark each entry class 1 if its AUC(0-t) sits below 2000 ng·h/mL, and class 0 for all others.

INSERT INTO assay_data (molecule, label) VALUES
  ('COC[C@@H](NC(=O)C1CCC(F)(F)CC1)C(=O)N[C@H](Cc1ccccc1)C(=O)C(=O)NCc1nccs1', 'class 0'),
  ('C[C@@H](NC(=O)CC1CC(F)(F)C1)C(=O)N[C@H](Cc1ccccc1)C(=O)C(=O)NCc1nccs1', 'class 0'),
  ('COC[C@@H](NC(=O)CC1CC(F)(F)C1)C(=O)N[C@H](Cc1ccccc1)C(=O)C(=O)NCc1nccs1', 'class 0'),
  ('C[C@@H](NC(=O)C1CCC(F)(F)C1)C(=O)N[C@H](Cc1ccccc1)C(=O)C(=O)NCc1nccs1 (stereo partly drawn)', 'class 1'),
  ('COC[C@@H](NC(=O)C1CCCC(F)(F)C1)C(=O)N[C@H](Cc1ccccc1)C(=O)C(=O)NCc1nccs1 (stereo partly drawn)', 'class 0'),
  ('C[C@@H](NC(=O)C1CCC(F)(F)CC1)C(=O)N[C@H](Cc1ccccc1)C(=O)C(=O)NCc1nccs1', 'class 1');

---

Listed compounds paired with reported CC50
- TEST_DESCRIPTION: in vitro
- Assay type: cell-based
- EXPERIMENTAL_CONTEXT: African green monkey; VeroE6, MTT, 72 h
READOUT_NAME: CC50

INSERT INTO assay_data (compound, readout_name, test_value) VALUES
  ('COC[C@@H](NC(=O)C1CCC(F)(F)CC1)C(=O)N[C@H](Cc1ccccc1)C(=O)C(=O)NCc1nccs1 [3v]', 'CC50', '132 µM'),
  ('COC[C@@H](NC(=O)C1CCCC(F)(F)C1)C(=O)N[C@H](Cc1ccccc1)C(=O)C(=O)NCc1nccs1 (stereo partly drawn) [SY110]', 'CC50', '> 500 µM'),
  ('COC[C@@H](NC(=O)CC1CC(F)(F)C1)C(=O)N[C@H](Cc1ccccc1)C(=O)C(=O)NCc1nccs1 [3x]', 'CC50', '> 500 µM'),
  ('C[C@@H](NC(=O)C1CCC(F)(F)C1)C(=O)N[C@H](Cc1ccccc1)C(=O)C(=O)NCc1nccs1 (stereo partly drawn) [3t]', 'CC50', '> 500 µM'),
  ('C[C@@H](NC(=O)C1CCC(F)(F)CC1)C(=O)N[C@H](Cc1ccccc1)C(=O)C(=O)NCc1nccs1 [3r]', 'CC50', '> 500 µM'),
  ('C[C@@H](NC(=O)CC1CC(F)(F)C1)C(=O)N[C@H](Cc1ccccc1)C(=O)C(=O)NCc1nccs1 [3u]', 'CC50', '> 500 µM');

---

- TEST_DESCRIPTION: in vivo
- EXPERIMENTAL_CONTEXT: male, ICR, mouse, iv, 1 mg/kg
READOUT_NAME: AUC(0-inf)

INSERT INTO measurements (compound, test_value) VALUES
  ('COC[C@@H](NC(=O)C1CCCC(F)(F)C1)C(=O)N[C@H](Cc1ccccc1)C(=O)C(=O)NCc1nccs1 (stereo partly shown)', '87.1 ng·h/mL');

---

- TEST_TARGET: CYP3A4 (Homo sapiens)
- Construct: Add 400 μL 0.2 mg/mL HLM; from tissue; host or cells: human liver microsomes (HLM)
- Sequence (P08684 whole entry): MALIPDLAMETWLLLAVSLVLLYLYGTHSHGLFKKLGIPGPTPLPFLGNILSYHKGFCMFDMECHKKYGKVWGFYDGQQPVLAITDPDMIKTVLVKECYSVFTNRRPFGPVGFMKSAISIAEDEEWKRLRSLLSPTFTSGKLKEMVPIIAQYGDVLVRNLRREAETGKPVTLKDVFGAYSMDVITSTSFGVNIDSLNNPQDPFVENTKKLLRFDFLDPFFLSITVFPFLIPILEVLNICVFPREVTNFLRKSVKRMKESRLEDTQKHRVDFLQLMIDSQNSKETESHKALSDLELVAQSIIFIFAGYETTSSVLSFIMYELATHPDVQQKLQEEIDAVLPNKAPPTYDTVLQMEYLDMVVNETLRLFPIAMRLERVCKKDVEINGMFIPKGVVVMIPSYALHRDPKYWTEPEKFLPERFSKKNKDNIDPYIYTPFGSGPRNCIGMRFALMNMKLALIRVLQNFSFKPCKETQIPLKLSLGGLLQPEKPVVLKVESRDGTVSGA
- TEST_DESCRIPTION: biochemical
- Type: in vitro ADME
- EXPERIMENTAL_CONTEXT: CYP3A4 (Testosterone), HLM
pIC50: −log10 of the molar value.
READOUT_NAME: pIC50

INSERT INTO assay_data (molecule, test_value) VALUES
  ('COC[C@@H](NC(=O)C1CCCC(F)(F)C1)C(=O)N[C@H](Cc1ccccc1)C(=O)C(=O)NCc1nccs1 (stereo partly shown)', '< 4.52');
